# System: Mus musculus
# method.notes: Effect on uterus weight in mouse at 0.1103 mmol/kg, po
# Format: functional
Where a SMILES comes first, the peptide text is derived from it. The star is where a group is joined. Succinyl(O17-estradiol) = C[C@]12CC[C@@H]3c4ccc(O)cc4CC[C@H]3[C@@H]1CC[C@@H]2OC(=O)CCC(=O)*; X1 = C[C@]12CC[C@@H]3c4ccc(OCC(=O)*)cc4CC[C@H]3[C@@H]1CCC2O
property.measured: Activity (mg)
Entry rule: numbers only, all in mg.

- compound: "C[C@]12CC[C@@H]3c4ccc(OCC(=O)N[C@@H](CCCNC(=N)N)C(=O)NCC(=O)N[C@@H](CC(=O)O)C(=O)N[C@@H](CO)C(=O)O)cc4CC[C@H]3[C@@H]1CCC2O (some centres not stated) (X1-RGDS-OH)"
  Activity [mg]: 43.2

Now consider a different compound.
[in] Look up and state reported Activity for CC(C)[C@H](NC(=O)[C@H](CC(=O)O)NC(=O)CNC(=O)[C@H](CCCNC(=N)N)NC(=O)CCC(=O)O[C@H]1CC[C@H]2[C@@H]3CCc4cc(O)ccc4[C@H]3CC[C@]12C)C(=O)O ({Succinyl(O17-estradiol)}-RGDV-OH)
[out] 50.7
